Entries and their Ki values follow.
- TARGET OR SYSTEM: Alpha-2C adrenergic receptor (Homo sapiens)
- Sequence (P18825 whole entry): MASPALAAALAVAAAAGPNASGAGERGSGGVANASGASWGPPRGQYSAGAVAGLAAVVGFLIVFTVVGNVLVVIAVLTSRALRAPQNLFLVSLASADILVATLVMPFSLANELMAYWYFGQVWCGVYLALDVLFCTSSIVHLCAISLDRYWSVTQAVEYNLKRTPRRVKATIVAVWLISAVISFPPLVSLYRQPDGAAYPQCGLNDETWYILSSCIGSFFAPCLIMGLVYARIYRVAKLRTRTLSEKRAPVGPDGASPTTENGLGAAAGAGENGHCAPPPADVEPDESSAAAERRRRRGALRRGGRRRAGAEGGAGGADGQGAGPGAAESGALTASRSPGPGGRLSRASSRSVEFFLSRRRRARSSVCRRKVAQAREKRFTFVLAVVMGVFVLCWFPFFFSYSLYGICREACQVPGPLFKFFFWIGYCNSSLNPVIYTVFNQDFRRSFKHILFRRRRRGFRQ

COC1(C2=NCCN2)COc2ccccc2O1 (centres undefined) [RX821002]    1.78 nM
COc1cccc(OC)c1OCCNCC1Oc2ccccc2OC1c1ccccc1 (centres undefined) [NSC_185453]    3.18 nM
O=C1NCN(c2ccccc2)C12CCN(CC1COc3ccccc3O1)CC2 (centres undefined)    1.04 nM

Then this compound:
Exam item: Consider the compound shown here: COc1cc(N)c(Cl)cc1C(=O)NC1CC2CCC(C1)N2C (centres undefined) What is its recorded Ki?
Marked response: 150 nM
